Cited source: the supplement of paper PMC10724198

- System: Saccharomyces cerevisiae
- Experiment: protein stability index of tFT-peptide fusion (C-terminal peptide) (PSI (0-1 scale)); higher = more stable (slower turnover)
- Assay setup: genetic background: wild type; temperature: 30 C
Response key: met means protein stability index >= 0.7; not met means protein stability index < 0.7.

Here's what some known entries look like.
| Seq text | System tested | Class |
| --- | --- | --- |
| LGGGGRWVVPGA | Saccharomyces cerevisiae | met |
| IREYSIRIKRLQ | Saccharomyces cerevisiae | not met |

Here is the next item to consider.
Query: Answer whether protein stability index of RILFSPSTFYLF is greater than or equal to 0.7.
Reply: not met

====

Measured protein stability index of individual entries
- Tested on: Saccharomyces cerevisiae
- Experiment: protein stability index of tFT-peptide fusion (C-terminal peptide) (PSI (0-1 scale)); higher = more stable (slower turnover)
- Assay setup: genetic background: wild type; temperature: 30 C
Lab note: write the figure by itself, no unit.

In the examples that follow, each entry is paired with its recorded protein stability index.
| Seq text | System tested | protein stability index |
| --- | --- | --- |
| LLCLAVVLWFVV | Saccharomyces cerevisiae | 0.307 |
| RLGGSLQRGKVV | Saccharomyces cerevisiae | 0.734 |
| GRSHYFLSILRI | Saccharomyces cerevisiae | 0.527 |
| CGFFSGLLYFSL | Saccharomyces cerevisiae | 0.586 |
| YFETNINKYLRM | Saccharomyces cerevisiae | 0.711 |
| GGYLLAGEGTFA | Saccharomyces cerevisiae | 0.702 |

Now turn to the next sequence.
Query: Specify reported protein stability index for the sequence shown: WFLFIPLACLRP
Reply: 0.592

====

- Test system: Saccharomyces cerevisiae
- Experiment: protein stability index of tFT-peptide fusion (C-terminal peptide) (PSI (0-1 scale)); higher = more stable (slower turnover)
- Assay setup: genetic background: das1 deletion; temperature: 37 C
Measurement label: protein stability index
Please respond with just the number, no unit label.

| Seq text | protein stability index |
| --- | --- |
| PRRVTVPGVPPL | 0.737 |

Query: Please supply the value of reported protein stability index for the item FTRLDYKRIKIV
Reply: 0.768

Query: Give protein stability index for VQLLTRLKTPHP
Reply: 0.719

Query: Could you please provide reported protein stability index for YCCDYFMFVLVV ? Thanks!
Reply: 0.301

Query: Supply reported protein stability index belonging to this sequence: PGVWVVILRWWV
Reply: 0.243

Query: Give recorded protein stability index. VARRRQQWMRGS
Reply: 0.546

Query: Retrieve protein stability index measured for MFRSEVSWKLCC and print it.
Reply: 0.753

Query: Determine from records and report protein stability index for TLVFPRFLFLVV
Reply: 0.493

Query: Please report the measured protein stability index for FWMLCFLCRLTV
Reply: 0.459

Query: Provide one value: measured protein stability index of FVVFYFFLLFGV
Reply: 0.454

Query: Supply recorded protein stability index for TPLLPPSPPPSR here.
Reply: 0.46

Query: Please list protein stability index recorded for the sequence FLLELRFTCSYS
Reply: 0.442

Query: Recall and state the measured protein stability index for NASWAFLCYFCV .
Reply: 0.685

Query: Assign protein stability index to the following record: FVVVCWFWGGGF
Reply: 0.465

Query: Using the record for GGVWVLGVAVVW , state its measured protein stability index.
Reply: 0.349

====

# key: entry, value: protein stability index
- Tested on: Saccharomyces cerevisiae
- Experiment: protein stability index of tFT-peptide fusion (C-terminal peptide) (PSI (0-1 scale)); higher = more stable (slower turnover)
- Assay setup: genetic background: doa10 deletion; temperature: 30 C
Just the number, please.

Query: Using known records, supply protein stability index for AFRFHTYFLLLC
Reply: 0.0686

Query: Please give the documented protein stability index of GLCFRVCIWVFV
Reply: 0.103

Query: For the sequence TRPHPLRRVFIF , give its measured protein stability index value.
Reply: 0.226

Query: Tell us which protein stability index value is on record for LFRFSRLFLFVL
Reply: 0.214

Query: Fill in reported protein stability index for this entry: RIFRCYSFYVVV
Reply: 0.272

====

Parameter: protein stability index. Scope: all listed entries.
- Tested on: Saccharomyces cerevisiae
- Experiment: protein stability index of tFT-peptide fusion (C-terminal peptide) (PSI (0-1 scale)); higher = more stable (slower turnover)
- Assay setup: genetic background: wild type; temperature: 30 C
Number only, please.

Examples from the recorded data:
| Seq text | protein stability index |
| --- | --- |
| GYGWGVGWGFGR | 0.673 |
| WLGCVLIGWHVL | 0.27 |
| RLFSSSCLPFPP | 0.781 |
| VAPDSARVFHFV | 0.64 |
| PPPPPPPTPPPP | 0.673 |
| SPWERTEMTFPR | 0.822 |
| STPPPHSPLPPP | 0.689 |
| SDVAWVEAPPRS | 0.678 |

Query: Please look at RRTEGKECEGEE and tell me its recorded protein stability index on Saccharomyces cerevisiae.
Reply: 0.707

Query: Give the observed protein stability index of WGGGRGTAVVGV for Saccharomyces cerevisiae.
Reply: 0.657

====

- System: Saccharomyces cerevisiae
- Experiment: protein stability index of tFT-peptide fusion (C-terminal peptide) (PSI (0-1 scale)); higher = more stable (slower turnover)
- Assay setup: genetic background: wild type; temperature: 30 C
Please use True whenever protein stability index is not below 0.6, and False whenever it is.

Check out these entries, answers already filled in.
| Seq text | System tested | Class |
| --- | --- | --- |
| APPPVAPAPGSA | Saccharomyces cerevisiae | True |
| SDSAPPPAALPH | Saccharomyces cerevisiae | True |
| RFIYYCVDVFFS | Saccharomyces cerevisiae | False |
| AIANIIERFTLL | Saccharomyces cerevisiae | True |
| APPVAKHHAGKD | Saccharomyces cerevisiae | True |

Query: Please indicate if the recorded protein stability index for RGVGFMGEGVTW meets or exceeds 0.6.
Reply: True

Query: Is protein stability index at least 0.6? Consider CRTSRSSSLPPY
Reply: True

Query: Is protein stability index for ESVPLLIVLHLV at or above 0.6?
Reply: False

Query: Answer whether protein stability index of RETSGEVESDVT is greater than or equal to 0.6.
Reply: True

====

- System: Saccharomyces cerevisiae
- Experiment: protein stability index of tFT-peptide fusion (C-terminal peptide) (PSI (0-1 scale)); higher = more stable (slower turnover)
- Assay setup: genetic background: wild type; temperature: 30 C
Measurement label: protein stability index
Please reply with the value in numeric form only.

Known protein stability index results, listed for orientation:
| Seq text | Measurement label | Observed value |
| --- | --- | --- |
| KDRCGNVPHQSR [MRN1 C-terminal 12 aa] | protein stability index | 0.716 |
| DIIKQGVNDIIV [ARD1 C-terminal 12 aa] | protein stability index | 0.717 |
| RKPPGFFDEGFM [FLC3 C-terminal 12 aa] | protein stability index | 0.697 |
| LRSKSRLRGSHT [AHC1 C-terminal 12 aa] | protein stability index | 0.654 |
| RELGFLFGLNAL [ULS1 C-terminal 12 aa] | protein stability index | 0.686 |

Query: Fill in protein stability index for record IEHVKYDNIVSP [UBC12 C-terminal 12 aa]
Reply: 0.675

====

- Tested on: Saccharomyces cerevisiae
- Experiment: protein stability index of tFT-peptide fusion (C-terminal peptide) (PSI (0-1 scale)); higher = more stable (slower turnover)
- Assay setup: genetic background: das1 deletion; temperature: 37 C
Label label 1 when protein stability index >= 0.5; otherwise label 0.

Solved cases (5 shown):
| Seq text | Class |
| --- | --- |
| GPWVIFSHLLLT | label 1 |
| SFFFLILFLFRD | label 0 |
| FCMLCVVFLGSL | label 1 |
| GGGWCEMLIVVG | label 1 |
| RIRRVMHLYTNN | label 1 |

Query: Does RVYLLGLFVRSG have a reported protein stability index of at least 0.5?
Reply: label 1

Query: Identify whether the reported protein stability index of the following sequence is 0.5 or greater: SSVCVLVSCVLG
Reply: label 1

Query: Exam item: decide whether the reported protein stability index for GRGRGGRWGRLC is at least 0.5.
Reply: label 1

Query: Decide: protein stability index of SLVIRLNIRLIL >= 0.5?
Reply: label 0

Query: Determine whether measured protein stability index meets or exceeds 0.5 for FLFLFLFPFSLI
Reply: label 1

====

- System: Saccharomyces cerevisiae
- Experiment: protein stability index of tFT-peptide fusion (C-terminal peptide) (PSI (0-1 scale)); higher = more stable (slower turnover)
- Assay setup: genetic background: wild type; temperature: 37 C
Criterion: protein stability index meeting or surpassing 0.4. Met: Fulfilled. Not met: Not fulfilled.

Solved cases below.
| Seq text | Class |
| --- | --- |
| LFFWWVAVVFRV | Not fulfilled |
| WFIFATFLILVT | Not fulfilled |

Query: Is it the case that ERFILVGMFGSW has protein stability index reaching or exceeding 0.4?
Reply: Fulfilled

Query: Tell me whether protein stability index is at least 0.4 here: VRINLLFVWFSR
Reply: Fulfilled

Query: Hello, I need to know if LSLFCFFLLVLF has measured protein stability index not below 0.4. Thanks!
Reply: Not fulfilled

Query: For this sequence, is measured protein stability index 0.4 or higher? FVICGMLVHWMV
Reply: Fulfilled

Query: Decide: is the reported value of protein stability index for IIPAFPFAFLAF equal to or greater than 0.4?
Reply: Fulfilled

Query: Confirm if protein stability index reported for the sequence FYACRLWLVSVR is 0.4 or above.
Reply: Not fulfilled

Query: Threshold query (protein stability index >= 0.4) on FLFLFLFPFSLI
Reply: Fulfilled

Query: // inclusive: protein stability index at least 0.4? input: VFYWGGVLCGWG
Reply: Fulfilled
